- EXPERIMENT: protein stability index of a GFP-peptide fusion (yeast GPS) (PSI 1-4); higher = more stable; sorted into four equal gates, so the index is relative within each strain
- EXPERIMENTAL_SETUP: doa10∆

{"MONOMER_SEQUENCE": "LNLEQVTLNKYCSGNIY [YJL039C/NUP192]", "protein stability index": 2.37}
{"MONOMER_SEQUENCE": "AHRNGIKKPKTYKYPSL [RPL29]", "protein stability index": 3.42}
{"MONOMER_SEQUENCE": "LYKFQNFQDLSYLSETL [YML103C/NUP188]", "protein stability index": 2.94}
{"MONOMER_SEQUENCE": "KLEYPHTDVSSSLEARY [RPN3]", "protein stability index": 2.76}
{"MONOMER_SEQUENCE": "VDREAMLKPNIIFQQLL [YCG1]", "protein stability index": 2.98}
{"MONOMER_SEQUENCE": "QGDEALSVDDIRGAVGN [RTT102]", "protein stability index": 3.35}
{"MONOMER_SEQUENCE": "KVTSTLLEQDTSTEKLY [PRE9]", "protein stability index": 2.7}

---

Collected protein stability index values appear next to each entry.
- EXPERIMENT: protein stability index of a GFP-peptide fusion (yeast GPS) (PSI 1-4); higher = more stable; sorted into four equal gates, so the index is relative within each strain
- EXPERIMENTAL_SETUP: pdr5∆

{"MONOMER_SEQUENCE": "GKIEKIAQSKKKNNKIK [SRP21]", "protein stability index": 3.02}
{"MONOMER_SEQUENCE": "ANDEEAYIKLLDQTKDT [SNF2]", "protein stability index": 3.21}
{"MONOMER_SEQUENCE": "EVSGENVVEADLKRFVD [QCR2]", "protein stability index": 3.25}
{"MONOMER_SEQUENCE": "HENYIQDDDFPLDDAGT [MCD1]", "protein stability index": 2.98}
{"MONOMER_SEQUENCE": "YHTNPGHSQFTSHYQNY [RPN4]", "protein stability index": 2.9}
{"MONOMER_SEQUENCE": "TKVLNMKPSEILSLIEE [SMC2]", "protein stability index": 3.3}
{"MONOMER_SEQUENCE": "ECQVIAAEGLCKLFLAD [YCG1]", "protein stability index": 3.29}
{"MONOMER_SEQUENCE": "GAIIGWTRGTGLMSANN [FAS2]", "protein stability index": 2.83}

---

- EXPERIMENT: protein stability index of a GFP-peptide fusion (yeast GPS) (PSI 1-4); higher = more stable; sorted into four equal gates, so the index is relative within each strain
- EXPERIMENTAL_SETUP: ubr1∆

{"MONOMER_SEQUENCE": "PLDDAGTIGWDLGITEK [MCD1]", "protein stability index": 3.05}
{"MONOMER_SEQUENCE": "KLISAFDDLEVEELPTF [RRP42]", "protein stability index": 2.85}
{"MONOMER_SEQUENCE": "IRNARSIRAEAVAASST [POP1]", "protein stability index": 2.19}
{"MONOMER_SEQUENCE": "ASKKSGGDVVKFQKLLQ [SMC4]", "protein stability index": 3.4}
{"MONOMER_SEQUENCE": "PQIRQEIEQLDQYIQKQ [YGL172W/NUP49]", "protein stability index": 2.78}
{"MONOMER_SEQUENCE": "KLEAEEIPSEDQNEFLL [FAS2]", "protein stability index": 3.51}
{"MONOMER_SEQUENCE": "LDYVRTPAAATSPIDIR [SNF2]", "protein stability index": 2.36}
{"MONOMER_SEQUENCE": "KKSKNGTISKTGKKNKV [SRP14]", "protein stability index": 3.51}
{"MONOMER_SEQUENCE": "LYPCYFDINRSHKEGRR [SEC65]", "protein stability index": 1.1}
{"MONOMER_SEQUENCE": "TKIDMPIKNRKNDTHYL [BRN1]", "protein stability index": 2.94}
{"MONOMER_SEQUENCE": "GKIEKIAQSKKKNNKIK [SRP21]", "protein stability index": 3.14}
{"MONOMER_SEQUENCE": "VLKFLTDLEKKHLWDQK [RPC17]", "protein stability index": 3.47}
{"MONOMER_SEQUENCE": "ITYALSGYVRSRGESDD [RPS21B]", "protein stability index": 2.84}
{"MONOMER_SEQUENCE": "LINGHRAPQQSVLQLFQ [SMC2]", "protein stability index": 2.42}

---

- EXPERIMENT: protein stability index of a GFP-peptide fusion (yeast GPS) (PSI 1-4); higher = more stable; sorted into four equal gates, so the index is relative within each strain
- EXPERIMENTAL_SETUP: doa10∆
Criterion: protein stability index meeting or surpassing 3. Met: True. Not met: False.

{"MONOMER_SEQUENCE": "LAHVDQIVDIRNKRAVQ [YJL039C/NUP192]", "CLASS": "False"}
{"MONOMER_SEQUENCE": "TTARAKARAKKTKKEKG [RPN2]", "CLASS": "True"}
{"MONOMER_SEQUENCE": "MTEHETKDKAKKIREIY [BRR2]", "CLASS": "False"}
{"MONOMER_SEQUENCE": "DDLKQKKEELVEIAYHK [RPO31]", "CLASS": "True"}
{"MONOMER_SEQUENCE": "RRERRLIFGTIASKMSL [RPT3]", "CLASS": "False"}
{"MONOMER_SEQUENCE": "EVDKSKLITTYISLLKL [YDL116W/NUP84]", "CLASS": "False"}
{"MONOMER_SEQUENCE": "DVKKRTYEAIDVPGREL [RPB2]", "CLASS": "False"}

---

- EXPERIMENT: protein stability index of a GFP-peptide fusion (yeast GPS) (PSI 1-4); higher = more stable; sorted into four equal gates, so the index is relative within each strain
- EXPERIMENTAL_SETUP: san1∆
Outcome: criterion met for protein stability index of at least 3; criterion not met for anything lower.

{"MONOMER_SEQUENCE": "RSEEEVTKLNVLVDEIK [YIL149C/MLP2]", "CLASS": "criterion met"}
{"MONOMER_SEQUENCE": "SPSYSPTSPAYSPTSPS [RPO21]", "CLASS": "criterion not met"}
{"MONOMER_SEQUENCE": "KSMITSEGEQKSAEGNN [YAR002W/NUP60]", "CLASS": "criterion met"}
{"MONOMER_SEQUENCE": "EEQLDLLSAILDPSKSK [MED11]", "CLASS": "criterion met"}
{"MONOMER_SEQUENCE": "LINGHRAPQQSVLQLFQ [SMC2]", "CLASS": "criterion not met"}
{"MONOMER_SEQUENCE": "TYNMIDAAAEKRNGDEV [ARP7]", "CLASS": "criterion met"}
{"MONOMER_SEQUENCE": "HPFGHALVAGIERYPLK [RPL27A]", "CLASS": "criterion not met"}
{"MONOMER_SEQUENCE": "MPLKILLATKQHDSSAN [CSN12]", "CLASS": "criterion not met"}
{"MONOMER_SEQUENCE": "SHERFFLSQGLHVVITL [CSN12]", "CLASS": "criterion not met"}
{"MONOMER_SEQUENCE": "PFKFGKTSEKSENHTES [YOR098C/NUP1]", "CLASS": "criterion met"}
{"MONOMER_SEQUENCE": "SKMYNTDKKAFLGALKY [PRP8]", "CLASS": "criterion not met"}
{"MONOMER_SEQUENCE": "FLLLAVNKYGLRADKLY [ISW2]", "CLASS": "criterion not met"}
{"MONOMER_SEQUENCE": "PKARQELPTQLALEIIV [RRP46]", "CLASS": "criterion not met"}

---

protein stability index reference
- EXPERIMENT: protein stability index of a GFP-peptide fusion (yeast GPS) (PSI 1-4); higher = more stable; sorted into four equal gates, so the index is relative within each strain
- EXPERIMENTAL_SETUP: san1∆

{"MONOMER_SEQUENCE": "LGVTYSSPTLATGFGAH [PRE4]", "protein stability index": 2.48}
{"MONOMER_SEQUENCE": "EVLQGLLQGGAKVVVTT [FAS2]", "protein stability index": 2.29}
{"MONOMER_SEQUENCE": "QAIKEASYVNIPVIALT [RPS0A]", "protein stability index": 2.15}
{"MONOMER_SEQUENCE": "LIIIEKKQKLIEEQDKK [ITC1]", "protein stability index": 2.96}
{"MONOMER_SEQUENCE": "NKTLTLDLKECYQFAEY [ARP7]", "protein stability index": 1.9}
{"MONOMER_SEQUENCE": "FPMKQGVLLPTRIKLLL [RPS6A]", "protein stability index": 1.17}
{"MONOMER_SEQUENCE": "TGAYIANRVTDKLTRVH [PRE3]", "protein stability index": 1.59}
{"MONOMER_SEQUENCE": "LVHTQIRKTPLAQKKAH [RPL3]", "protein stability index": 1.65}
